Record: IC50 reported on Lethal factor (Bacillus anthracis, UniProt P15917).
Sequence (P15917 whole entry): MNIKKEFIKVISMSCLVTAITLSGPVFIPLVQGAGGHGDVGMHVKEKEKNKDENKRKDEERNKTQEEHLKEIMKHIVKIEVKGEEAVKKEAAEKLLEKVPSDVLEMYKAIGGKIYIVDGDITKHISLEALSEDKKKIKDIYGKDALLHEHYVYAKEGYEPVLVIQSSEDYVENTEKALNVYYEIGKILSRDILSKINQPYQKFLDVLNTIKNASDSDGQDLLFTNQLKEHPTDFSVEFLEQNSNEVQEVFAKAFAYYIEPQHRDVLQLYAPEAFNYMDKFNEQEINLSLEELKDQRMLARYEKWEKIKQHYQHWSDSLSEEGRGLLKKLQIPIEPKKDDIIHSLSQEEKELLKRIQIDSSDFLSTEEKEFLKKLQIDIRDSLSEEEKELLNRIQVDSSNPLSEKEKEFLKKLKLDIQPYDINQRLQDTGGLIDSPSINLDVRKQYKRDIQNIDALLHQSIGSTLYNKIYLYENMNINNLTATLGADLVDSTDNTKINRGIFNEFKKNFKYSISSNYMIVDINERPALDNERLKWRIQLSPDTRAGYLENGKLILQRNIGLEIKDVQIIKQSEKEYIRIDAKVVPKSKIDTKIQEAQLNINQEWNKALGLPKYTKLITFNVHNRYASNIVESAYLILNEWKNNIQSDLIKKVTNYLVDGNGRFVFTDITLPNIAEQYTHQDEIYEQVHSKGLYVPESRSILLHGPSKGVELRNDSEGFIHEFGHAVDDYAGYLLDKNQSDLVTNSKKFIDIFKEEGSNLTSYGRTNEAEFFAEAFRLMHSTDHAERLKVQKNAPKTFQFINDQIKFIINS
MEASURE: IC50 (µM)

O=S(=O)(Nc1sccc1-c1nc2ccccc2s1)c1ccc(Cl)c(C(F)(F)F)c1 : 10
COc1cccc(S(=O)(=O)Nc2scc(C)c2-c2nc3ccccc3s2)c1 : 11
CN1CCOc2cc(S(=O)(=O)Nc3sccc3-c3nc4ccccc4s3)ccc21 : 23
Cc1csc(NS(=O)(=O)c2cccc(Cl)c2C)c1-c1nc2ccccc2s1 : 100
Cc1ccc(S(=O)(=O)Nc2sccc2-c2nc3ccccc3s2)cc1Cl : 6.6
O=S(=O)(Nc1sccc1-c1nc2ccccc2s1)c1ccccc1 : 39
Cc1csc(NS(=O)(=O)c2cccc(-c3ccc(Cl)cc3)c2)c1-c1nc2ccccc2s1 : 22
O=C(NCc1ccc(S(=O)(=O)Nc2sccc2-c2nc3ccccc3s2)s1)c1ccc(Cl)cc1 : 14
Cc1ccc(-c2ccc(S(=O)(=O)Nc3sccc3-c3nc4ccccc4s3)cc2)cc1 : 28
O=S(=O)(Nc1sccc1-c1nc2ccccc2s1)c1ccc2nonc2c1 : 30
COc1ccc(S(=O)(=O)Nc2scc(C)c2-c2nc3ccccc3s2)cc1 : 46
O=S(=O)(Nc1sccc1-c1nc2ccccc2s1)c1ccc(Br)c(Cl)c1 : 4.5
O=S(=O)(Nc1sccc1-c1nc2ccccc2s1)c1cccc(C(F)(F)F)c1 : 16
O=S(=O)(Nc1sccc1-c1nc2ccccc2s1)c1ccc(Oc2ccccc2Cl)cc1 : 9
O=S(=O)(Nc1sccc1-c1nc2ccccc2s1)c1ccc(Cl)cc1 : 15
